Reference source: patent US20250223342A1

test_target: T1, human serum albumin (human, UniProt P02768 25-609)
T1 construct: also called HSA
test_protocol: SPR (Biacore), VHH clone, pH 7.4
Each record here notes measured log10 of koff.
experimental_endpoint: log10 of koff (log10 of the value in s⁻¹)

binder	log10 of koff
2C10 (VHH) VHH: QLQLVESGGGLVQAGGSLRLSCAASGRTFSSYAMGWFRQAPGKEREFVAVISWSGGSTYYADSVKGRFTISGDNAKNTVYLQMNSLKPEDTAVYYCATEGPKWEPYNGIYSPADFGSWGQGTQVTVSS	-2.25
2H11 (VHH, also called 2H11 parental (VHH)) VHH: ELQVVESGGGLVQAGGSLRLSCAASGRTFRSNTMGWFRQAPGKEREFVAAITWSGGTTYYADSVKGRFAISGDNAKNTVYLQMNSLKPEDTAVYYCAAEGPKWEPWNGIYHPADFGSWGQGTQVTVSS	-1.28
2B03 (VHH) VHH: QLQLVESGGGLVQAGGSLRLSCAASGRAISSYVMAWFRQAPGKEREFVTSINWSGGSTYYAHSVKGRFTISRDNAKNTVYLQMNTLKPEDTAVYYCAADLYGLGYEVMSYDYWGQGTQVTVSS	-1.60
9E10 (VHH) VHH: QLQVVESGGGLVQAGGSLRLSCTTSGRAFIGYAMGWFRQAPGKEREFVAAISWFAGDTTDYANSVKGRFTISRDNAKNTVYLQMNSLKPEDTAVYVCAASSARPLSSRSDEYHYWGQGTQVTVSS	-2.39
4G12 (VHH) VHH: QLQLVESGGGLVQAGGSLRLSCVASGRSFSTYGMGWFRQAPGAEREFAAAINWKGDRYYADSVKGRFTISRDNAKNTVFLEMNSLKPEDTGVYYCAADSDGSAFSRRLEYDYWGQGTQVTVSS	-2.48
1E04 (VHH) VHH: QLQLVESGGGLVQTGGSLRLSCAASGRTFSNYNAGWFRQVPGKEPEFVAAINWSGGTTYYADSVKGRFTISRDNAKNTVYLQMNSLKPEDTAVYYCAADPDWSILNPREYDYWGQGTRVTVSS	-2.27
11C03 (VHH, also called 11C03 parental (VHH)) VHH: QLQVVESGGGLVQAGGSLRLSCAASERTFVAYPMGWFRQAPEKEREFVAGISWFAGATTDYADSVEGRFTISRDNAKNTAYLQMNNLKPEDTAVYYCAISHQLPGGRPGRDMDSYSYWGHGTQVTVSS	-2.41
2A10 (VHH) VHH: EVQLVESGGGLVQAGGSLRLSCAASGRTFSSYAMGWFRQAPGKEREFVATINWSGGSTYYADSVKGRFTISRDNAKNTVYLQMNSLKPEDTAVYYCAADLYGPGFVLSMEYDYWGQGTQVTVSS	-1.96
9F02 (VHH) VHH: EVQLVESGGGLVQAGGSLRLSCTASRRAFIGYAMGWFRQAPGKEREFVAAISWFAGDTTDYADSVKGRFTISRDNAKNTVYLQMNGLKPEDTAVYVCAASSARPMSGRSDEYHYWGQGTQVTVSS	-3.89
12G03 (VHH) VHH: QVQLVESGGGLVQAGGSLRLSCAASERAFSHSNMAWFRQAPGKEREFVAHIHWRGSTTYLDSVKGRFTISRDNAKNTVYLQMNGLRLEDTAVYYCAADSARRILVTVSTSYDYWGQGTQVTVSS	-2.28
